# reported normalized RNA/DNA level with ligand (log10); entries follow
B1: library; a variant is named by its letters at N, in order (parent)
chain: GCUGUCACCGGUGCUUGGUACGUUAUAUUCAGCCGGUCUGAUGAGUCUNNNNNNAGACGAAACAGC

Variants of: B1
methodDescription: normalized RNA/DNA level with ligand (relative to sTRSVctl = 100) (log10 (% of sTRSVctl)); HEK293T overexpressing SLC46A1; ligand concentration (+) RNA-Seq: 6 mM; higher = less ribozyme self-cleavage, higher mRNA level
conditions: with (6R,S)-folinic acid; ligand present: yes
measurementType: normalized RNA/DNA level with ligand (log10)

variantAnnotation	number
CGACUA	2.04
GUUUGC	2.02
UAGGAG	1.91
AGGUGC	2.01
GAGACU	2.02
CUCAGC	2.03
CCGGAA	2.01
AUAAUC	2
UUGUGU	2.05
AGUAAG	2.01
GGAUAC	2.03
AUGUAC	1.98
UUAGGA	2
AUGCAU	2.01
GAAAAA	2.01
UAUAGC	1.98
AGCCGC	2.02
GAGGCG	2.05
GUGCAU	2.02
UUAGAC	2.01
UUAGAU	1.99
ACGCUA	2.03
AUGGCA	2
CGUCCC	1.95
CUAAGU	1.99
CAUUCC	2.02
UAAUAG	1.96
GCUAAG	2.02
GAUUUG	2.03
AAUCCC	2
CGUAUG	2.01
UGCUUG	1.96
CUGGGU	2.03
AUUAGA	2.01
CGUCUU	2
AGCUCG	2
UCCAAA	1.99
ACACCU	2.05
ACUGAC	2
UUACGA	2.04
CAGCCU	2.05
GUAUAA	1.99
CUGGUC	2.04
CUAGAC	1.99
UUACCG	2
CUAUCG	2.02
